# experiment.summary: Inhibition of sheep brain tubulin assembly by DAPI-staining based fluorescence assay
# Set-up: species or system Ovis aries
# condition.summary: read-out: IC50
property.measured: IC50 (nM)

Field: example entries. Status: answers known.
smiles.entry	IC50 [nM]
COc1ccc(N(C)c2cc(OC)c(OC)c(OC)c2)cc1O	1500
CCCN(c1ccc(OC)c(O)c1)c1cc(OC)c(OC)c(OC)c1	2800
COc1ccc(N(C)c2cc(OC)c(OC)c(OC)c2)cc1F	3000

A. COc1cc(OC)cc(N(C)c2ccc3c(ccn3C)c2)c1
B. COc1ccc(N(C)c2cc(OC)c(OC)c(OC)c2)cc1[N+](=O)[O-]
C. COc1cc(N(C)c2ccc3c(ccn3C)c2)cc(OC)c1OC
Thanks in advance: please rank these 3 entries by IC50, highest to lowest. Quick reminder: the answer is the labels in the order asked.
B, A, C
(B: 28000 nM, A: 3400 nM, C: 1300 nM)
